meta.source: paper PMC8767022

Substrate: CCCC(=O)Oc1ccc([N+](=O)[O-])cc1
Assay: purified protein
Assay type: biochemical, Erythrobacter longus
Conditions: Tris-HCl pH 9.0 (also pH 7.0), 40 °C, 0.05-4.00 mM substrate
MET if Km is below 400 µM. NOT MET if not; exact matches included in NOT MET.

## Task Consider E53 (Erythrobacter longus; N166A) (protein, full length, 314 residues; N-terminal His6-SUMO tag (pSMT3) removed with Ulp1; E. coli BL21(DE3); monomer) MTDTPFIRPDMKAFLEAIAAMAGPTLAEMTLEEARASYVALHGMADRPARELAVIRNLSCPGPAGDIPLRLYDARESREAGPVITFYHGGGFVIGDLDTHHNLCTEIAALMDLPVVAVDYRLAPEHPFPAAIEDCEAATRWVASSPSELGRTASGVIPIGDSAGGAATIVVSQLLGAKPADVPVVLQVPIFPLASDAVGSASLEAFAEGFVLTKASIEFFDTAYKADRADPRGFPILGDHTAAPPTIVATASLDPIRDSGRDYAKALVEAGRDVVYLEMEGVTHSFTNIRAAVPSTQGDLERIIAAMKMMLGTA . Does its Km lie strictly below 400 µM?
## Result NOT MET

## Task Consider E53 (Erythrobacter longus) (protein, full length, 314 residues; N-terminal His6-SUMO tag (pSMT3) removed with Ulp1; E. coli BL21(DE3); monomer) MTDTPFIRPDMKAFLEAIAAMAGPTLAEMTLEEARASYVALHGMADRPARELAVIRNLSCPGPAGDIPLRLYDARESREAGPVITFYHGGGFVIGDLDTHHNLCTEIAALMDLPVVAVDYRLAPEHPFPAAIEDCEAATRWVASSPSELGRTASGVIPIGDSAGGNATIVVSQLLGAKPADVPVVLQVPIFPLASDAVGSASLEAFAEGFVLTKASIEFFDTAYKADRADPRGFPILGDHTAAPPTIVATASLDPIRDSGRDYAKALVEAGRDVVYLEMEGVTHSFTNIRAAVPSTQGDLERIIAAMKMMLGTA . Does its Km lie strictly below 400 µM?
## Result MET

## Task Consider E53 (Erythrobacter longus; S216A) (protein, full length, 314 residues; N-terminal His6-SUMO tag (pSMT3) removed with Ulp1; E. coli BL21(DE3); monomer) MTDTPFIRPDMKAFLEAIAAMAGPTLAEMTLEEARASYVALHGMADRPARELAVIRNLSCPGPAGDIPLRLYDARESREAGPVITFYHGGGFVIGDLDTHHNLCTEIAALMDLPVVAVDYRLAPEHPFPAAIEDCEAATRWVASSPSELGRTASGVIPIGDSAGGNATIVVSQLLGAKPADVPVVLQVPIFPLASDAVGSASLEAFAEGFVLTKAAIEFFDTAYKADRADPRGFPILGDHTAAPPTIVATASLDPIRDSGRDYAKALVEAGRDVVYLEMEGVTHSFTNIRAAVPSTQGDLERIIAAMKMMLGTA . Does its Km lie strictly below 400 µM?
## Result NOT MET

## Task Consider E53 (Erythrobacter longus; A167L) (protein, full length, 314 residues; N-terminal His6-SUMO tag (pSMT3) removed with Ulp1; E. coli BL21(DE3); monomer) MTDTPFIRPDMKAFLEAIAAMAGPTLAEMTLEEARASYVALHGMADRPARELAVIRNLSCPGPAGDIPLRLYDARESREAGPVITFYHGGGFVIGDLDTHHNLCTEIAALMDLPVVAVDYRLAPEHPFPAAIEDCEAATRWVASSPSELGRTASGVIPIGDSAGGNLTIVVSQLLGAKPADVPVVLQVPIFPLASDAVGSASLEAFAEGFVLTKASIEFFDTAYKADRADPRGFPILGDHTAAPPTIVATASLDPIRDSGRDYAKALVEAGRDVVYLEMEGVTHSFTNIRAAVPSTQGDLERIIAAMKMMLGTA . Does its Km lie strictly below 400 µM?
## Result MET

## Task Consider E53 (Erythrobacter longus; I256L) (protein, full length, 314 residues; N-terminal His6-SUMO tag (pSMT3) removed with Ulp1; E. coli BL21(DE3); monomer) MTDTPFIRPDMKAFLEAIAAMAGPTLAEMTLEEARASYVALHGMADRPARELAVIRNLSCPGPAGDIPLRLYDARESREAGPVITFYHGGGFVIGDLDTHHNLCTEIAALMDLPVVAVDYRLAPEHPFPAAIEDCEAATRWVASSPSELGRTASGVIPIGDSAGGNATIVVSQLLGAKPADVPVVLQVPIFPLASDAVGSASLEAFAEGFVLTKASIEFFDTAYKADRADPRGFPILGDHTAAPPTIVATASLDPLRDSGRDYAKALVEAGRDVVYLEMEGVTHSFTNIRAAVPSTQGDLERIIAAMKMMLGTA . Does its Km lie strictly below 400 µM?
## Result MET
